molecular target: BCL2 D103Y (Homo sapiens, UniProt P10415, D103Y); test: TR-FRET competitive binding assay, BCL2 D103Y; conditions: Ki determined from IC50, read-out: TR_FRET EKI_Bcl2 D103Y
valueType: Ki (nM)
Report only the number, with the unit nM understood.

Here is how some compounds turned out for Ki.
>  <compound>
Cc1c(N(C(=O)c2cc(-c3cc4c(cc3C(=O)N3Cc5ccccc5C[C@H]3C)CN(C(=O)Cc3cccc(N5CCN(C)CC5)c3)CC4)n(C)c2C)c2ccccc2)cc(C#N)n1C [Example 3]

>  <scaleUnit>
nM

>  <Ki>
0.12

$$$$
>  <compound>
COc1ccc(N(C(=O)c2cc(-c3cc4c(cc3C(=O)N3Cc5ccccc5C[C@H]3CN3CCCCC3)CN(C(=O)Cc3ccc(OCCN5CCOCC5)cc3F)CC4)n(C)c2C)c2ccc(O)cc2)cc1C#N [Example 167]

>  <scaleUnit>
nM

>  <Ki>
0.15

$$$$
>  <compound>
Cc1c(C(=O)N(c2ccc(O)cc2)c2cc(C#N)n(CCN(C)C3CC3)c2C)cc(-c2cc3c(cc2C(=O)N2Cc4ccccc4C[C@H]2C)CN(C(=O)Cc2ccccc2)CC3)n1C [Example 22]

>  <scaleUnit>
nM

>  <Ki>
0.82

$$$$
>  <compound>
COCc1ccc(CC(=O)N2CCc3cc(-c4cc(C(=O)N(c5ccc(O)cc5)c5cc(C#N)n(C)c5C)c(C)n4C)c(C(=O)N4Cc5ccccc5C[C@H]4C)cc3C2)cc1 [Example 87]

>  <scaleUnit>
nM

>  <Ki>
0.46

$$$$

Alright, here's another compound for you.
Cc1c(N(C(=O)c2cc(-c3cc4c(cc3C(=O)N3Cc5ccccc5C[C@H]3CN3CCCCC3)CN(C(=O)Cc3ccc(OCCN5CCOC(C)C5)cc3F)CC4)n(C)c2C)c2ccc(O)cc2)cc(C#N)n1C (single isomer, unassigned) [Example 109] on BCL2 D103Y (Homo sapiens, UniProt P10415, D103Y) gives Ki = 0.15

----------
Overview of reported pKi across a group of compounds:
molecular target: BCL2 G101V (Homo sapiens, UniProt P10415, G101V); test: TR-FRET competitive binding assay, BCL2 G101V; conditions: BCL2 G101V; Ki determined from IC50; read-out: TR_FRET EKI_Bcl2 G101V
// returns pKi (minus log10 of molar concentration), number only

>  <structureNotation>
COc1ncc(N(C(=O)c2cc(-c3cc4c(cc3C(=O)N3Cc5ccccc5C[C@H]3C)CN(C(=O)Cc3ccc(OCCN5CCOCC5)cc3)CC4)n(C)c2C)c2ccccc2)cc1C#N

>  <pKi>
8.92

$$$$
>  <structureNotation>
Cc1c(C(=O)N(c2ccccc2)c2cnn(C(F)F)c2)cc(-c2cc3c(cc2C(=O)N2Cc4ccccc4C[C@H]2CN2CCCCC2)CN(C(=O)Cc2ccc(OCCC4CCOCC4)cc2)CC3)n1C

>  <pKi>
7.41

$$$$

Alright, here's another compound for you.
get_value(item= Cc1c(N(C(=O)c2cc(-c3cc4c(cc3C(=O)N3Cc5ccccc5C[C@H]3CN3CCCCCC3)CN(C(=O)Cc3ccc(OCCN5CCOCC5)cc3F)CC4)n(C)c2C)c2ccc(O)cc2)cc(C#N)n1C , readout=pKi) returns 9.40

----------
target: BCL2 F104I (Homo sapiens, UniProt P10415, F104I); assay: TR-FRET competitive binding assay, BCL2 F104I; settings: Ki determined from IC50, read-out: TR_FRET EKI_Bcl2 F104I
// returns -1 unless Ki is strictly below 1 nM, in which case 1

Exam item: Could you please tell me whether Ki recorded for Cc1c(N(C(=O)c2cc(-c3cc4c(cc3C(=O)N3Cc5ccccc5C[C@H]3CN(C(C)C)C(C)C)CN(C(=O)Cc3ccc(OCCN5CCOCC5)cc3F)CC4)n(C)c2C)c2ccc(O)cc2)cc(C#N)n1C [Example 152] is less than 1 nM?
Marked response: 1

Exam item: Could you please tell me whether Ki recorded for Cc1c(N(C(=O)c2cc(-c3cc4c(cc3C(=O)N3Cc5ccccc5C[C@H]3CN3CCCCC3)CN(C(=O)Cc3ccc(OCCN5CCOCC5)cc3F)CC4)n(C)c2C)c2ccc(O)cc2)cc(C#N)n1C [Example 229] is less than 1 nM?
Marked response: 1

Exam item: Could you please tell me whether Ki recorded for Cc1c(N(C(=O)c2cc(-c3cc4c(cc3C(=O)N3Cc5ccccc5C[C@H]3CN3CCC[C@@H](C)C3)CN(C(=O)Cc3ccc(OCCN5CCOCC5)cc3F)CC4)n(C)c2C)c2ccc(O)cc2)cc(C#N)n1C [Example 124] is less than 1 nM?
Marked response: 1

Exam item: Could you please tell me whether Ki recorded for Cc1c(N(C(=O)c2cc(-c3cc4c(cc3C(=O)N3Cc5ccccc5C[C@H]3C)CN(C(=O)Cc3ccc(N5CCN(CC(F)(F)F)CC5)cc3)CC4)n(C)c2C)c2ccc(O)cc2)cc(C#N)n1C [Example 23] is less than 1 nM?
Marked response: -1
